target: Serine/threonine-protein kinase B-raf (Homo sapiens, UniProt P15056, V600E); experiment: Inhibition of recombinant human N-terminal GST-tagged B-Raf V600E mutant expressed in baculovirus expression system using Z'-LYTE Ser/Thr3 peptide as substrate incubated for 1 hr by FRET-based Z'-LYTE assay
Sequence (P15056 2-766 V600E limits assumed): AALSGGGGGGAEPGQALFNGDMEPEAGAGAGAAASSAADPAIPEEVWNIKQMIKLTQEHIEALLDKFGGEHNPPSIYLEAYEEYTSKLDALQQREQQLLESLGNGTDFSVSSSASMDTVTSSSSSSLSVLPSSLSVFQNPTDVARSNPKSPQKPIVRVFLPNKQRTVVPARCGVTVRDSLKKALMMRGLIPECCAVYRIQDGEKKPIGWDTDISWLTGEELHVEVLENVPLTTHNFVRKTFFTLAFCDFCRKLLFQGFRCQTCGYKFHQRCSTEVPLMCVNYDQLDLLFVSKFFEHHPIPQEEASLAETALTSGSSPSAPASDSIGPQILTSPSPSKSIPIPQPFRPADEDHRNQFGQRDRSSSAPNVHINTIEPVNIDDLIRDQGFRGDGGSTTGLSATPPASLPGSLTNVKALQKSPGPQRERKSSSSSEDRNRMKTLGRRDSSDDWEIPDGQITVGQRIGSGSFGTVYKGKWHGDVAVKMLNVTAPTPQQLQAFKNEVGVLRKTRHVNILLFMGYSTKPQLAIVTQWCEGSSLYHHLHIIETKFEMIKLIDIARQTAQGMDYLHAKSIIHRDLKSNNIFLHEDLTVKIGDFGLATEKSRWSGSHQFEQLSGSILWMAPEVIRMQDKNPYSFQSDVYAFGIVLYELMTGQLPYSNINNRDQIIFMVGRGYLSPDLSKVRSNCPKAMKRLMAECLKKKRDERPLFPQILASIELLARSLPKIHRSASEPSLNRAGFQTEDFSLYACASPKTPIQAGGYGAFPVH
Record form. Attribute: IC50. Fill in for each entry.

Consider the following illustrative entries.
{"SMILES REPRESENTATION": "N#Cc1cccc(C(=O)Nc2cccc(Nc3ccnc(NC(=O)C4CC4)c3)c2)c1", "MEASURED ON": "Serine/threonine-protein kinase B-raf (Homo sapiens, UniProt P15056, V600E)", "ENDPOINT NAME": "IC50", "VALUE MEASURED": "3530 nM"}
{"SMILES REPRESENTATION": "CC(C)C(=O)Nc1cc(Nc2cccc(NC(=O)c3cccc(C4CC4)c3)c2)ccn1", "MEASURED ON": "Serine/threonine-protein kinase B-raf (Homo sapiens, UniProt P15056, V600E)", "ENDPOINT NAME": "IC50", "VALUE MEASURED": "420 nM"}
{"SMILES REPRESENTATION": "O=C(Nc1cccc(Nc2ccnc(NC(=O)C3CCCC3)c2)c1)c1cccc(C2CC2)c1", "MEASURED ON": "Serine/threonine-protein kinase B-raf (Homo sapiens, UniProt P15056, V600E)", "ENDPOINT NAME": "IC50", "VALUE MEASURED": "434 nM"}
{"SMILES REPRESENTATION": "Cc1cccc(C(=O)Nc2cccc(Nc3ccnc(NC(=O)C4CC4)c3)c2)c1", "MEASURED ON": "Serine/threonine-protein kinase B-raf (Homo sapiens, UniProt P15056, V600E)", "ENDPOINT NAME": "IC50", "VALUE MEASURED": "1210 nM"}

Value sought for every listed compound: IC50.
1. O=C(Nc1cccc(Nc2ccnc(NC(=O)C3CC3)c2)c1)c1ccc(C(F)(F)F)cc1
2. CC(C)c1cccc(C(=O)Nc2cccc(Nc3ccnc(NC(=O)C4CC4)c3)c2)c1
3. O=C(Nc1cccc(Nc2ccnc(NC(=O)C3CC3)c2)c1)c1ccccc1C(F)(F)F

1. > 10000 nM
2. 13 nM
3. > 10000 nM

Value sought for every listed compound: IC50.
1. O=C(Nc1cccc(Nc2ccnc(NC(=O)C3CCC3)c2)c1)c1cccc(C2CC2)c1
2. O=C(Nc1cccc(Nc2ccnc(NC(=O)C3CC3)c2)c1)c1cccc(C(F)(F)F)c1
3. CC(C)(C)C(=O)Nc1cc(Nc2cccc(NC(=O)c3cccc(C4CC4)c3)c2)ccn1
4. O=C(Nc1cccc(Nc2ccnc(NC(=O)C3CC3)c2)c1)c1cccc(C2CC2)c1
5. CC(C)(C#N)c1cccc(C(=O)Nc2cccc(Nc3ccnc(NC(=O)C4CC4)c3)c2)c1
6. CC(=O)Nc1cc(Nc2cccc(NC(=O)c3cccc(C4CC4)c3)c2)ccn1
7. N#CC1(c2cccc(C(=O)Nc3cccc(Nc4ccnc(NC(=O)C5CC5)c4)c3)c2)CC1

["182 nM", "141 nM", "1030 nM", "35 nM", "38 nM", "50 nM", "79 nM"]

Value sought for every listed compound: IC50.
1. CCc1cccc(C(=O)Nc2cccc(Nc3ccnc(NC(=O)C4CC4)c3)c2)c1
2. O=C(Nc1cccc(Nc2ccnc(NC(=O)C3CC3)c2)c1)c1cccc(Cl)c1

110 nM
785 nM

Value sought for every listed compound: IC50.
1. CCC(=O)Nc1cc(Nc2cccc(NC(=O)c3cccc(C4CC4)c3)c2)ccn1
2. CC(C)(C)c1cccc(C(=O)Nc2cccc(Nc3ccnc(NC(=O)C4CC4)c3)c2)c1
3. O=C(Nc1cccc(Nc2ccnc(NC(=O)C3CCCCC3)c2)c1)c1cccc(C2CC2)c1

1. 125 nM
2. 20 nM
3. 563 nM

# IC50 lookup, item O=C(Nc1cccc(Nc2ccnc(NC(=O)C3CC3)c2)c1)c1cccc([N+](=O)[O-])c1
1510 nM
